Data origin: ChEMBL document CHEMBL1153560

# System: Phocaeicola vulgatus
# Test: Antibacterial activity against Bacteroides vulgatus isolated from patient with diabetic foot infection after 44 to 48 hrs by agar dilution method
# Assay type: functional
Parameter Measured: MIC90 (µg/mL)
One number for each entry, in µg/mL.

Answered examples (4):
# Molecule, Assayed System, Unit Spec, Result
rows = [
    ("C[C@@H](O)[C@H]1C(=O)N2C(C(=O)O)=C(S[C@@H]3CN[C@H](CNS(N)(=O)=O)C3)[C@H](C)[C@H]12", "Phocaeicola vulgatus", "µg/mL", 1),
    ("Cc1ncc([N+](=O)[O-])n1CCO", "Phocaeicola vulgatus", "µg/mL", 1),
    ("C[C@@H](O)[C@H]1C(=O)N2C(C(=O)O)=C(S[C@@H]3CN[C@H](C(=O)Nc4cccc(C(=O)O)c4)C3)[C@H](C)[C@H]12", "Phocaeicola vulgatus", "µg/mL", 2),
    ("C[C@@H](O)[C@H]1C(=O)N2C(C(=O)O)=C(SCCNC=N)C[C@H]12 [IMIPENEM ANHYDROUS]", "Phocaeicola vulgatus", "µg/mL", 1),
]

Shift focus to the following entry.
Input: Report MIC90 from Phocaeicola vulgatus testing of C[C@@H](O)[C@H]1C(=O)N2C(C(=O)O)=C(S[C@@H]3CN[C@H](C(=O)N(C)C)C3)[C@H](C)[C@H]12
Output: 1

* * *

# Test system: Corynebacterium striatum
# Test: Antibacterial activity against Corynebacterium striatum isolated from patient with diabetic foot infection after 48 hrs by broth microdilution method
# Format: functional
Give measured MIC50 for each item. Keep answers brief.
Give bare numbers, in µg/mL.

Answered examples (4):
# Molecule, MIC50 / µg/mL
records = [
    ("C[C@@H](O)[C@H]1C(=O)N2C(C(=O)O)=C(S[C@@H]3CN[C@H](C(=O)N(C)C)C3)[C@H](C)[C@H]12 [MEROPENEM]", 0.125),
    ("C[C@@H](O)[C@H]1C(=O)N2C(C(=O)O)=C(S[C@@H]3CN[C@H](C(=O)Nc4cccc(C(=O)O)c4)C3)[C@H](C)[C@H]12 [ERTAPENEM]", 0.5),
    ("C[C@@H](O)[C@H]1C(=O)N2C(C(=O)O)=C(S[C@@H]3CN[C@H](CNS(N)(=O)=O)C3)[C@H](C)[C@H]12 [DORIPENEM]", 0.125),
    ("CCC[C@@H]1C[C@@H](C(=O)N[C@@H]([C@H]2O[C@H](SC)[C@H](O)[C@@H](O)[C@H]2O)[C@H](C)Cl)N(C)C1 [CLINDAMYCIN]", 2),
]

Shift focus to the following entry.
Input: Report MIC50 from Corynebacterium striatum testing of C[C@@H](O)[C@H]1C(=O)N2C(C(=O)O)=C(SCCNC=N)C[C@H]12 [IMIPENEM ANHYDROUS]
Output: 0.03

* * *

# Tested on: Parvimonas micra
# Test: Antibacterial activity against Peptostreptococcus micros isolated from patient with diabetic foot infection after 44 to 48 hrs by agar dilution method
# Type: functional
Parameter Measured: MIC50 (µg/mL)
Give bare numbers, in µg/mL.

# Compound, Assayed System, MIC50 (µg/mL)
measured = [
    ("C[C@@H](O)[C@H]1C(=O)N2C(C(=O)O)=C(S[C@@H]3CN[C@H](CNS(N)(=O)=O)C3)[C@H](C)[C@H]12", "Parvimonas micra", 0.06),
    ("CCC[C@@H]1C[C@@H](C(=O)N[C@@H]([C@H]2O[C@H](SC)[C@H](O)[C@@H](O)[C@H]2O)[C@H](C)Cl)N(C)C1", "Parvimonas micra", 0.125),
    ("C[C@@H](O)[C@H]1C(=O)N2C(C(=O)O)=C(SCCNC=N)C[C@H]12 [IMIPENEM ANHYDROUS]", "Parvimonas micra", 0.03),
    ("C[C@@H](O)[C@H]1C(=O)N2C(C(=O)O)=C(S[C@@H]3CN[C@H](C(=O)Nc4cccc(C(=O)O)c4)C3)[C@H](C)[C@H]12", "Parvimonas micra", 0.25),
    ("C[C@@H](O)[C@H]1C(=O)N2C(C(=O)O)=C(S[C@@H]3CN[C@H](C(=O)N(C)C)C3)[C@H](C)[C@H]12", "Parvimonas micra", 0.125),
]

Input: Provide only the value of recorded MIC50 for Cc1ncc([N+](=O)[O-])n1CCO
Output: 0.25

* * *

# Test system: Clostridium perfringens
# Test: Antibacterial activity against Clostridium perfringens isolated from patient with diabetic foot infection after 44 to 48 hrs by agar dilution method
# Type: functional
Parameter Measured: MIC50

Answered examples (5):
# Compound, MIC50
data = [
    ("C[C@@H](O)[C@H]1C(=O)N2C(C(=O)O)=C(S[C@@H]3CN[C@H](C(=O)Nc4cccc(C(=O)O)c4)C3)[C@H](C)[C@H]12", "0.06 µg/mL"),
    ("CCC[C@@H]1C[C@@H](C(=O)N[C@@H]([C@H]2O[C@H](SC)[C@H](O)[C@@H](O)[C@H]2O)[C@H](C)Cl)N(C)C1", "1 µg/mL"),
    ("C[C@@H](O)[C@H]1C(=O)N2C(C(=O)O)=C(S[C@@H]3CN[C@H](C(=O)N(C)C)C3)[C@H](C)[C@H]12", "≤ 0.015 µg/mL"),
    ("C[C@@H](O)[C@H]1C(=O)N2C(C(=O)O)=C(S[C@@H]3CN[C@H](CNS(N)(=O)=O)C3)[C@H](C)[C@H]12", "≤ 0.015 µg/mL"),
    ("C[C@@H](O)[C@H]1C(=O)N2C(C(=O)O)=C(SCCNC=N)C[C@H]12 [IMIPENEM ANHYDROUS]", "0.06 µg/mL"),
]

Shift focus to the following entry.
Input: Provide only the value of recorded MIC50 for Cc1ncc([N+](=O)[O-])n1CCO
Output: 1 µg/mL

* * *

# Test system: Clostridium perfringens
# Test: Antibacterial activity against Clostridium perfringens isolated from patient with diabetic foot infection after 44 to 48 hrs by agar dilution method
# Format: functional
Parameter Measured: MIC90 (µg/mL)
One number for each entry, in µg/mL.

State recorded MIC90 for all listed compounds.
1. C[C@@H](O)[C@H]1C(=O)N2C(C(=O)O)=C(S[C@@H]3CN[C@H](C(=O)Nc4cccc(C(=O)O)c4)C3)[C@H](C)[C@H]12
2. CCC[C@@H]1C[C@@H](C(=O)N[C@@H]([C@H]2O[C@H](SC)[C@H](O)[C@@H](O)[C@H]2O)[C@H](C)Cl)N(C)C1
3. Cc1ncc([N+](=O)[O-])n1CCO
4. C[C@@H](O)[C@H]1C(=O)N2C(C(=O)O)=C(SCCNC=N)C[C@H]12 [IMIPENEM ANHYDROUS]

Output:
0.125
1
1
0.125

Input: Provide only the value of recorded MIC90 for C[C@@H](O)[C@H]1C(=O)N2C(C(=O)O)=C(S[C@@H]3CN[C@H](CNS(N)(=O)=O)C3)[C@H](C)[C@H]12
Output: 0.03

* * *

Give measured MIC50 for each item. Keep answers brief.
# System: Corynebacterium simulans
# Test: Antibacterial activity against Corynebacterium simulans isolated from patient with diabetic foot infection after 48 hrs by broth microdilution method
# Type: functional
One number for each entry, in µg/mL.

# Compound, Assayed System, MIC50, µg/mL
data = [
    ("C[C@@H](O)[C@H]1C(=O)N2C(C(=O)O)=C(S[C@@H]3CN[C@H](C(=O)Nc4cccc(C(=O)O)c4)C3)[C@H](C)[C@H]12", "Corynebacterium simulans", 0.5),
    ("C[C@@H](O)[C@H]1C(=O)N2C(C(=O)O)=C(SCCNC=N)C[C@H]12 [IMIPENEM ANHYDROUS]", "Corynebacterium simulans", 0.03),
    ("CCC[C@@H]1C[C@@H](C(=O)N[C@@H]([C@H]2O[C@H](SC)[C@H](O)[C@@H](O)[C@H]2O)[C@H](C)Cl)N(C)C1", "Corynebacterium simulans", 2),
    ("C[C@@H](O)[C@H]1C(=O)N2C(C(=O)O)=C(S[C@@H]3CN[C@H](C(=O)N(C)C)C3)[C@H](C)[C@H]12", "Corynebacterium simulans", 0.125),
]

Input: Report MIC50 from Corynebacterium simulans testing of C[C@@H](O)[C@H]1C(=O)N2C(C(=O)O)=C(S[C@@H]3CN[C@H](CNS(N)(=O)=O)C3)[C@H](C)[C@H]12
Output: 0.125

* * *

# Test system: Klebsiella aerogenes
# Test: Antibacterial activity against Enterobacter aerogenes isolated from patient with diabetic foot infection after 18 to 24 hrs by broth microdilution method
# Assay type: functional
Give measured MIC50 for each item. Keep answers brief.
Give bare numbers, in µg/mL.

Answered examples (3):
# Compound, Parameter Measured, Result
data = [
    ("C[C@@H](O)[C@H]1C(=O)N2C(C(=O)O)=C(S[C@@H]3CN[C@H](C(=O)N(C)C)C3)[C@H](C)[C@H]12 [MEROPENEM]", "MIC50", 0.06),
    ("C[C@@H](O)[C@H]1C(=O)N2C(C(=O)O)=C(S[C@@H]3CN[C@H](CNS(N)(=O)=O)C3)[C@H](C)[C@H]12 [DORIPENEM]", "MIC50", 0.06),
    ("C[C@@H](O)[C@H]1C(=O)N2C(C(=O)O)=C(S[C@@H]3CN[C@H](C(=O)Nc4cccc(C(=O)O)c4)C3)[C@H](C)[C@H]12 [ERTAPENEM]", "MIC50", 0.06),
]

Shift focus to the following entry.
Input: Provide only the value of recorded MIC50 for C[C@@H](O)[C@H]1C(=O)N2C(C(=O)O)=C(SCCNC=N)C[C@H]12 [IMIPENEM ANHYDROUS]
Output: 1
